// data source = patent US5744451A

- targetSystem: UniProt:P29466
- Sequence (P29466 120-297 limits assumed): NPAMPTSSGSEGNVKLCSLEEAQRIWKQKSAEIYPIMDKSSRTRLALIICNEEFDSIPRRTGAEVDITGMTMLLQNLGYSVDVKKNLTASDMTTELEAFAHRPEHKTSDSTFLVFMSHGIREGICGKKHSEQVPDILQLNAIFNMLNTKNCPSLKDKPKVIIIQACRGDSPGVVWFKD
- Sequence (P29466 317-404 limits assumed): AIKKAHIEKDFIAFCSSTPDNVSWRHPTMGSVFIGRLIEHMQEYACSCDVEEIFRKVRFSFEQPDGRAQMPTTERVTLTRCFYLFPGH
pKi: −log10 of the molar value. Residues, ends and D or L forms follow the SMILES beside them.

| compound | pKi |
| --- | --- |
| CC(=O)N[C@@H](Cc1ccc(O)cc1)C(=O)N[C@H](C(=O)N[C@@H](C)C(=O)N[C@H](C=O)CCC(=O)O)C(C)C [Ac-Tyr-Val-Ala-Glu[CHO]] (Ac-YVAE-aldehyde) | 8.74 |
